The origin of these recorded values is patent US9644240B2.

- SUBJECT OF TEST: MRI180 (Homo sapiens)
- Sequence (P08235 1-984): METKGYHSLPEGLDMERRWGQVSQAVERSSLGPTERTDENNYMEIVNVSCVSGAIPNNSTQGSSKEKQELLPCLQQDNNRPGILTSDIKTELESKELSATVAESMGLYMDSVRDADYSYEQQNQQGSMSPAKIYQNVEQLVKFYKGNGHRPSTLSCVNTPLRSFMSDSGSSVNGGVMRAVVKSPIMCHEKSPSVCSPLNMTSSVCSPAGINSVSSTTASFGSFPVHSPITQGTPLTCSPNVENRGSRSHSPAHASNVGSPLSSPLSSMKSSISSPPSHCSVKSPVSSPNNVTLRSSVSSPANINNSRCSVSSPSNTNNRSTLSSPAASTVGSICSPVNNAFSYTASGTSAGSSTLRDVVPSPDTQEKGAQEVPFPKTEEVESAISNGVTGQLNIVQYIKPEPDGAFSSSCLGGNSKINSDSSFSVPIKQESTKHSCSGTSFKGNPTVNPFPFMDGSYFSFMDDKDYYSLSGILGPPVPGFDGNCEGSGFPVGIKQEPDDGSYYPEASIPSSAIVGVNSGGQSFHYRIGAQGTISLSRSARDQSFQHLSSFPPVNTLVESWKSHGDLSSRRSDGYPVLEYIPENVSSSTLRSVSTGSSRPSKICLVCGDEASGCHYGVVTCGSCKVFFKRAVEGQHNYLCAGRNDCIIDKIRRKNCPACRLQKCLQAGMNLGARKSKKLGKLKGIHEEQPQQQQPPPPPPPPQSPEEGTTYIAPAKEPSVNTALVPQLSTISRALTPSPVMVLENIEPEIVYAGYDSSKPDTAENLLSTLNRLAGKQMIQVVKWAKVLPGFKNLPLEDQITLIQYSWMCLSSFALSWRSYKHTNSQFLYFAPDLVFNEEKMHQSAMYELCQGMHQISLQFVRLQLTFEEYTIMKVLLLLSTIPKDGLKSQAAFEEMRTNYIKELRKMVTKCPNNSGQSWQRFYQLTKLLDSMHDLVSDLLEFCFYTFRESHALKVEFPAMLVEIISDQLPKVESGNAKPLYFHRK
ENDPOINT: Kd (pM)
Express the result in pM but write the number alone.

(Q) Value lookup for Kd; key = "C[C@]12CCC(=O)C=C1CC[C@@H]1[C@@H]2[C@@H](O)C[C@@]2(C)[C@H]1CC[C@]2(O)C(=O)CO"
(A) 860
